Species: Rattus norvegicus
Assay: Open TG-GATES - Regimen: Single
Assay type: toxicity, organism-based, Sprague-Dawley
Design: regimen Single, gender Male, age 6 weeks
Settings: in vivo, po, 1000 mg/kg, 24 h, tissue Blood, route gavage, dose level High
property-measured: MCHC (%)
Report the figure in % without appending any unit label.

The cases that follow already have their MCHC on record.
> print(dat)
                                   compound  measurement
1          CCc1cc(C(N)=S)ccn1 [ETHIONAMIDE]           34
2  O=C(O)c1cn(C2CC2)c2cc(N3CCNCC3)c(F)cc2c1=O         33.6
3  O=C(O)c1cc(/N=N/c2ccc(S(=O)(=O)Nc3ccccn3)cc2)ccc1O         34.4
4          C[C@H](CS)C(=O)N1CCC[C@H]1C(=O)O         33.2

// moving on: another record for MCHC
q: Report MCHC for "Clc1ccccc1CN1CCc2sccc2C1" please.
a: 35.7
